B1: Twister Ribozyme (parent)
chain: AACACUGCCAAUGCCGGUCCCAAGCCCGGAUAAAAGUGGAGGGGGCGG

Variants of: B1
Assay: self-cleavage, relative activity (ratio to wild type); higher = more cleavage; co-transcriptional
Reported values of self-cleavage for individual entries
Write the number on its own, no unit after it.

// worked examples, self-cleavage included
G13C G41C    0.104
C8A C9A    0.0842
C9G C15G    0.0512
A23G A33U    0.393
A1U A35G    0.025

Item C19G G24A has what recorded self-cleavage?
0.0928

Item A11U C27U has what recorded self-cleavage?
0.894

Item A33U G41A has what recorded self-cleavage?
0.472

Item "C26A" has what recorded self-cleavage?
0.706

Item C5A G29A has what recorded self-cleavage?
0.362

Item C8U A30U has what recorded self-cleavage?
0.662

Item A1G G38A has what recorded self-cleavage?
0.432

Item A32C A34C has what recorded self-cleavage?
0.329

Item G16U C46U has what recorded self-cleavage?
1.02

Item C8A G45U has what recorded self-cleavage?
0.176

Item U12A G42U has what recorded self-cleavage?
0.427

Item C20A C27A has what recorded self-cleavage?
0.0891

Item A2C U18A has what recorded self-cleavage?
0.0761

Item C3U G16U has what recorded self-cleavage?
0.183

Item C9G G17A has what recorded self-cleavage?
0.103

Item A35G A40C has what recorded self-cleavage?
0.142

Item G36A G39U has what recorded self-cleavage?
0.12

Item A1C U37A has what recorded self-cleavage?
0.148

Item A35C G47C has what recorded self-cleavage?
0.574

Item C26A G36C has what recorded self-cleavage?
0.105

Item G17U A30C has what recorded self-cleavage?
0.147

Item A33G U37C has what recorded self-cleavage?
0.532

Every entry's value here was drawn from the RNAGym collection of RNA variant scans (doi:10.7554/elife.80360).
